Source listed as PubChem BioAssay AID652104.

- Assay info: qHTS of TDP-43 Inhibitors; also: nearly all actives have a fitted effect of over 50% in size; also: potency is read from the fitted curve at half-maximal effect
- Experimental setup: TDP-43 expressing yeast growth rescue, BacTiter-Glo, 24 h; series mostly up to 46.1 µM
The whole screen tested about 410,000 compounds, of which about 7,200 (1.8%) were called active. Roughly 7% stayed inconclusive and do not appear here. The entries come from a sample that favours actives as a whole.
Value type: Potency

Some entries whose results are on file:
CCOC(=O)[C@]12Cc3cc(OC)ccc3[C@H]1N(C(C)C)C(=O)c1ccccc12 : inactive
C[N+]1(C)CCOC(O)(c2ccc(-c3ccc(C4(O)C[N+](C)(C)CCO4)cc3)cc2)C1 (stereo unspecified) : 5.01 µM (active)
N#Cc1ccc(Cn2cc(C(=O)c3ccco3)c3ccccc32)cc1 : 17.8 µM (active)
O=c1[nH]c2ccccc2n1C1CCN(C(c2ccccc2)c2nnnn2Cc2ccccc2)CC1 (stereo unspecified) : inactive
CC1CNCCN1c1ccc(Cl)cc1 (stereo unspecified) : inactive
CC(C)Oc1ccc(NC(=O)c2cc3ccccc3o2)cc1 : inactive

Prompt: For the molecule shown here, c1cc2c(cc1[C@H]1OC[C@H]3[C@@H]1CO[C@@H]3c1ccc3c(c1)OCO3)OCO2 , give the reported Potency.
Completion: 11.2 µM (active)

Prompt: Then O=C(Cc1ccc(Cl)cc1)NCCN1CCN(C(=O)Cc2ccc(Cl)cc2)CC1 ?
Completion: inactive

Prompt: Then O=C(CCC(=O)N1C[C@H]2C[C@@H](C1)c1cccc(=O)n1C2)NCc1ccccc1C(F)(F)F ?
Completion: inactive

Prompt: Then Cc1nc2ccccc2c(=O)n1-c1ccc(Cl)cc1Cl ?
Completion: 15.8 µM (active)

Prompt: Then CN(C(=O)c1cccc(NC(=O)Cc2cccc([N+](=O)[O-])c2)c1)C1CCCCC1 ?
Completion: inactive

Prompt: Then Cc1ccc(-c2nc3ccccc3c(=O)n2-c2ccc(Br)cn2)cc1 ?
Completion: inactive

Prompt: Then O=C(NC1CCCCC1)N1Cc2cc(N3CCCCC3)ccc2-n2nncc2C1 ?
Completion: inactive

Prompt: Then CCOC(=O)c1c(-c2ccccc2)oc2ccc(OC(=O)N(C)C)cc12 ?
Completion: inactive

Prompt: Then O=c1c2ccccc2nc(CBr)n1-c1ccc(Cl)cc1 ?
Completion: inactive

Prompt: Then Cc1ccc(NC(=O)N(Cc2ccc3c(c2)OCO3)C2CCN(Cc3ccccc3)CC2)cc1F ?
Completion: inactive

Prompt: Then c1ccc(-c2nnc(SCc3nc4ccccc4[nH]3)o2)cc1 ?
Completion: 12.6 µM (active)

Prompt: Then O=c1[nH]c2ccccc2n1C1CCN(C(c2ccnc3ccccc23)c2nnnn2Cc2ccccc2)CC1 (stereo unspecified) ?
Completion: inactive

Prompt: Then CC(C)N(CC#CCC1(O)c2ccccc2-c2ccccc21)C(C)C ?
Completion: inactive

Prompt: Then O=c1c2ccccc2nc(-c2ccc(Cl)cc2Cl)n1-c1ccncc1 ?
Completion: inactive

Prompt: Then O=C(C1CCN(S(=O)(=O)c2ccc(Br)s2)CC1)N1CCN(c2ccccc2)CC1 ?
Completion: inactive
